The origin of these recorded values is patent US20230133381A1.

Target: human DR5 (human)
Test: SPR (BIAcore X100), human DR5 on CM5 chip, IgG injected, 1:1 Langmuir model
ASSAY_ENDPOINT: kon (M⁻¹ s⁻¹)

>>> reported_result("DA34 (antibody, V domains shown) VH: AVTLDESGGGLQTPGGGLSLVCKGSGFTFSSFNMLWVRQAPGKGLEWVAGIGKSDRYTGYGSAVKGRATISRDDGQSTAYLQMNSLRAEDTAVYYCVKDAGSGCGSGGWTGACIDTWGHGTEVIVSS VL: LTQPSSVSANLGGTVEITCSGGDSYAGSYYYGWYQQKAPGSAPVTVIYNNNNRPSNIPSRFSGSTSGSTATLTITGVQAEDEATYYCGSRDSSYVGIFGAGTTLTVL")
"1e+06"
